- Test system: Mus musculus
- assay comment: Acute toxicity in po dosed mouse assessed as concentration required to produce 50% loss of righting reflex administered as qd for 4 days measured for 1 min post last dose
- Assay type: organism-based
- condition notes: in vivo
List of PD50 values.
Please give a number only; it is taken to be in mg/kg.

Example entries and their recorded answers appear below.
{"columns": ["molecule", "measured parameter", "value units", "result"],
 "data": [
  ["CN1CCC/C1=N\\C(=O)Nc1cccc(F)c1", "PD50", "mg/kg", 500],
  ["Cc1cccc(Cl)c1NC(=O)/N=C1\\CCCN1C", "PD50", "mg/kg", 232],
  ["COc1cccc(NC(=O)/N=C2\\CCCN2C)c1", "PD50", "mg/kg", 1390],
  ["CN1CCC/C1=N\\C(=O)Nc1c(Cl)cccc1Cl", "PD50", "mg/kg", 320]
]}

Lab note: need PD50 for Cc1cccc(C)c1NC(=O)/N=C1\CCCN1C [XILOBAM] on Mus musculus, anyone have it?
230

Lab note: need PD50 for CCN1CCC/C1=N\C(=O)Nc1cccc(Cl)c1 on Mus musculus, anyone have it?
1307

Lab note: need PD50 for CN1CCC/C1=N\C(=O)Nc1c(Br)cccc1Br on Mus musculus, anyone have it?
350

Lab note: need PD50 for CN1CCC/C1=N\C(=O)Nc1cccc(Br)c1 on Mus musculus, anyone have it?
1430

Lab note: need PD50 for CN1CCC/C1=N\C(=O)Nc1ccc([N+](=O)[O-])cc1 on Mus musculus, anyone have it?
1200

Lab note: need PD50 for CN1CCC/C1=N\C(=O)Nc1cccc(C(F)(F)F)c1 on Mus musculus, anyone have it?
1000

Lab note: need PD50 for CNC1=Nc2ccc(Cl)cc2C(c2ccccc2)=[N+]([O-])C1 [CHLORDIAZEPOXIDE] on Mus musculus, anyone have it?
680

###

- assay comment: Acute toxicity in po dosed mouse assessed as mortality administered as qd for 6 days measured on day 7 post last dose
- Assay type: organism-based
- condition notes: in vivo
List of LD50 at 144 h values.
Please give a number only; it is taken to be in mg/kg.

Example entries and their recorded answers appear below.
{"columns": ["molecule", "measured parameter", "result"],
 "data": [
  ["COc1cccc(NC(=O)/N=C2\\CCCN2C)c1", "LD50 at 144 h", 1200],
  ["COc1cccc(NC(=O)/N=C2\\CCC(C)N2C)c1 (stereo not given)", "LD50 at 144 h", 1900],
  ["CCc1cccc(C)c1NC(=O)/N=C1\\CCCN1C", "LD50 at 144 h", 650]
]}

Give the measured LD50 at 144 h of Cc1cccc(NC(=O)/N=C2\CCCN2C)c1 .
850

Give the measured LD50 at 144 h of CN1CCC/C1=N\C(=O)Nc1cccc(F)c1 .
525

Give the measured LD50 at 144 h of CN1CCC/C1=N\C(=O)Nc1cccc(Br)c1 .
1580

###

- Test system: Mus musculus
- assay comment: Anticonvulsant activity in po dosed mouse assessed as blockade of supramaximal electroshock-induced […] seizure
- Format: functional
The source made the active and inactive calls. How the calls were made is not given here.
Answer with one of the outcomes active, inactive

Examples with answers:
{"columns": ["compound", "group"],
 "data": [
  ["CN1CCC/C1=N\\C(=O)Nc1ccc(Cl)cc1", "inactive"],
  ["O=C(/N=C1\\CCCN1Cc1ccccc1)Nc1c(Cl)cccc1Cl", "inactive"],
  ["CN1CCC/C1=N\\C(=O)Nc1ccc(OCc2ccccc2)cc1", "inactive"],
  ["CN1CC(c2ccccc2)C/C1=N\\C(=O)Nc1cccc(Cl)c1 (stereo not drawn)", "inactive"],
  ["Cc1cccc(C)c1NC(=O)/N=C1\\CCCCCN1C", "inactive"]
]}

Any idea what this test logged for CN1CCCCC/C1=N\C(=O)Nc1ccccc1 ?
inactive

Any idea what this test logged for CN1CCC/C1=N\C(=O)Nc1cc(C(F)(F)F)cc(C(F)(F)F)c1 ?
active

Any idea what this test logged for CCCCN1CCC/C1=N\C(=O)Nc1cccc(Cl)c1 ?
inactive

Any idea what this test logged for Cc1cccc(C)c1NC(=O)/N=C1\CCCCCN1 ?
inactive

Any idea what this test logged for CN1CCC/C1=N\C(=O)Nc1ccccc1Cl ?
active

###

- Tested on: Mus musculus
- assay comment: Muscle relaxant activity in po dosed mouse assessed as increase in strychnine-induced persistant convulsive threshold
- Assay type: functional
The source made the active and inactive calls.
measured parameter: Activity

Example entries and their recorded answers appear below.
{"columns": ["compound", "result"],
 "data": [
  ["CN1CCC/C1=N\\C(=O)Nc1ccc(N(C)C)cc1", "inactive"],
  ["CCOC(=O)c1ccc(NC(=O)/N=C2\\CCCN2C)cc1", "inactive"],
  ["Cc1cccc(C)c1NC(=O)/N=C1\\CCC(C)N1C (stereo not drawn)", "inactive"],
  ["CN1CC(C)(C)C/C1=N\\C(=O)Nc1c(Cl)cccc1Cl", "inactive"],
  ["Cc1cccc(C)c1NC(=O)/N=C1\\C(C)C(c2ccccc2)CN1C (stereo not drawn)", "inactive"]
]}

Lab note: need Activity for CSc1ccc(NC(=O)/N=C2\CCCN2C)cc1 on Mus musculus, anyone have it?
inactive

Lab note: need Activity for O=C(/N=C1\CCCN1Cc1ccccc1)Nc1cccc(Cl)c1 on Mus musculus, anyone have it?
inactive

Lab note: need Activity for O=C(/N=C1\CCCCCN1)Nc1c(Cl)cccc1Cl on Mus musculus, anyone have it?
inactive

Lab note: need Activity for Cc1cc(N(C)C)cc(C)c1NC(=O)/N=C1\CCCN1C on Mus musculus, anyone have it?
Active

Lab note: need Activity for O=C(/N=C1\CCCCCN1)Nc1ccccc1 on Mus musculus, anyone have it?
inactive

Lab note: need Activity for Cc1ccc(Cl)c(C)c1NC(=O)/N=C1\CCCN1C on Mus musculus, anyone have it?
Active

Lab note: need Activity for CN1CCC/C1=N\C(=O)Nc1ccc(O)cc1 on Mus musculus, anyone have it?
inactive

Lab note: need Activity for O=C(/N=C1\CCCN1)Nc1ccccc1 on Mus musculus, anyone have it?
Active

###

- assay comment: Therapeutic index, ratio of PD50 for acute toxicity in po dosed mouse assessed as concentration required to produce 50% loss of righting reflex to MED causing antianxiety activity in ip dosed rat assessed as effect on increase in punished responses
- Type: organism-based
- condition notes: in vivo, other: oral (PD50, mouse) and intraperitoneal (MED, rat), read-out: TI
measured parameter: selectivity ratio
Would you mind answering with just the numeric figure?

Example entries and their recorded answers appear below.
{"columns": ["compound", "measured parameter", "result"],
 "data": [
  ["CN1CCC/C1=N\\C(=O)Nc1ccc([N+](=O)[O-])cc1", "selectivity ratio", 80],
  ["CNC1=Nc2ccc(Cl)cc2C(c2ccccc2)=[N+]([O-])C1 [CHLORDIAZEPOXIDE]", "selectivity ratio", 260],
  ["CCN1CCC/C1=N\\C(=O)Nc1cccc(Cl)c1", "selectivity ratio", 58],
  ["CN1CCC/C1=N\\C(=O)Nc1cccc(Cl)c1", "selectivity ratio", 63],
  ["Cc1cccc(NC(=O)/N=C2\\CCCN2C)c1", "selectivity ratio", 33],
  ["CN1CCC/C1=N\\C(=O)Nc1cccc(F)c1", "selectivity ratio", 20],
  ["CN1CCC/C1=N\\C(=O)Nc1ccccc1", "selectivity ratio", 15]
]}

Let us examine a further case.
Give the measured selectivity ratio of CN1CCC/C1=N\C(=O)Nc1cccc(Br)c1 .
57

###

- Test system: Mus musculus
- assay comment: Muscle relaxant activity in po dosed mouse assessed as increase in strychnine-induced persistant convulsive threshold
- Format: functional
The source made the active and inactive calls.
Answer with one of the outcomes label 1 for active, label 0 for inactive

Examples with answers:
{"columns": ["compound", "group"],
 "data": [
  ["CN1CC(c2ccccc2)C/C1=N\\C(=O)Nc1c(Cl)cccc1Cl (stereo unspecified)", "label 0"],
  ["O=C(/N=C1\\CCCN1Cc1ccccc1)Nc1cccc(C(F)(F)F)c1", "label 0"],
  ["CN1CC(c2ccccc2)C/C1=N\\C(=O)Nc1cccc(Cl)c1 (stereo unspecified)", "label 0"],
  ["CN1CCC/C1=N\\C(=O)Nc1ccccc1C(F)(F)F", "label 1"],
  ["CN1CCC/C1=N\\C(=O)Nc1ccc(S(C)(=O)=O)cc1", "label 0"]
]}

Any idea what this test logged for CC1/C(=N\C(=O)Nc2c(Cl)cccc2Cl)N(C)CC1c1ccccc1 (stereo unspecified) ?
label 0

Any idea what this test logged for COc1ccc(NC(=O)/N=C2\CCCN2C)cc1 ?
label 0

Any idea what this test logged for CC1/C(=N\C(=O)Nc2cccc(Cl)c2)N(C)CC1c1ccccc1 (stereo unspecified) ?
label 0

Any idea what this test logged for CN1CCCC/C1=N\C(=O)Nc1ccccc1 ?
label 0

Any idea what this test logged for Cc1ccc(NC(=O)/N=C2\CCCN2C)cc1 ?
label 0

Any idea what this test logged for CC(C)c1ccccc1NC(=O)/N=C1\CCCN1C ?
label 1

Any idea what this test logged for CN1CCCCC/C1=N\C(=O)Nc1cccc(Cl)c1 ?
label 0

Any idea what this test logged for CCCCN1CCC/C1=N\C(=O)Nc1c(C)cccc1C ?
label 0

Any idea what this test logged for CN1CC(c2ccccc2)C/C1=N\C(=O)Nc1ccccc1 (stereo unspecified) ?
label 0

Any idea what this test logged for CN1CCC/C1=N\C(=S)Nc1ccccc1 ?
label 0

Any idea what this test logged for CCCCN1CCC/C1=N\C(=O)Nc1cccc(Cl)c1 ?
label 0

Any idea what this test logged for CCOc1ccc(NC(=O)/N=C2\CCCN2C)cc1 ?
label 0

Any idea what this test logged for CN1CCCCC/C1=N\C(=O)Nc1c(Cl)cccc1Cl ?
label 0

Any idea what this test logged for CN1CC(C)(C)C/C1=N\C(=O)Nc1ccccc1 ?
label 0

Any idea what this test logged for Cc1cc(C)c(NC(=O)/N=C2\CCCN2C)c(C)c1 ?
label 1

Any idea what this test logged for CN1CCC/C1=N\C(=O)Nc1c(Br)cc(Br)cc1Br ?
label 1

Any idea what this test logged for Cc1ccccc1NC(=O)/N=C1\CCCN1C ?
label 1
